assay: Intrinsic clearance in human hepatocytes measured per million cells incubated for 120 mins by LC-MS/MS analysis; assay type: ADME, cell-based, Hepatocyte; details: read-out: CLH
readout_name: hepatocyte CLint (µL/min/1e6 cells)

* [2H]C([2H])([2H])Oc1cc(C(=O)Nc2cc3c(cc2Oc2cc(C)cc(C)c2)C(=O)N[C@@H](CC(=O)N(OC([2H])([2H])[2H])C([2H])([2H])[2H])C(=O)N3)c(Br)c(OC([2H])([2H])[2H])c1OC([2H])([2H])[2H] | 8.5

---

tested on: MDA-MB-231; assay: Antitumor activity against human MDA-MB-231 cells incubated for 48 hrs in presence of 1.5% BSA by Celltiter Blue reagent based 3D microtiter assay; type: functional
Simple rule here: GI50 less than 9 nM is TRUE, otherwise FALSE.

- [2H]C([2H])([2H])Oc1cc(C(=O)Nc2cc3c(cc2Oc2cc(C)cc(C)c2)C(=O)N[C@@H](CC(=O)N(C)OC)C(=O)N3)c(Br)c(OC([2H])([2H])[2H])c1OC([2H])([2H])[2H]: FALSE
- [2H]C([2H])([2H])N(C(=O)C[C@@H]1NC(=O)c2cc(Oc3cc(C)cc(C)c3)c(NC(=O)c3cc(OC)c(OC)c(OC)c3Br)cc2NC1=O)C([2H])([2H])[2H]: FALSE
- [2H]C([2H])([2H])Oc1cc(C(=O)Nc2cc3c(cc2Oc2cc(C)cc(C)c2)C(=O)N[C@@H](CC(=O)N(C([2H])([2H])C([2H])([2H])[2H])C([2H])([2H])C([2H])([2H])[2H])C(=O)N3)c(Br)c(OC([2H])([2H])[2H])c1OC([2H])([2H])[2H]: FALSE
- [2H]C([2H])([2H])Oc1cc(C(=O)Nc2cc3c(cc2Oc2cc(C)cc(C)c2)C(=O)N[C@@H](CC(=O)N(OC([2H])([2H])[2H])C([2H])([2H])[2H])C(=O)N3)c(Br)c(OC([2H])([2H])[2H])c1OC([2H])([2H])[2H]: FALSE
- [2H]C([2H])([2H])Oc1cc(C(=O)Nc2cc3c(cc2Oc2cc(C)cc(C)c2)C(=O)N[C@@H](CC(=O)N(C)C)C(=O)N3)c(Br)c(OC([2H])([2H])[2H])c1OC([2H])([2H])[2H]: TRUE
- CCN(CC)C(=O)C[C@H]1C(=O)Nc2cc(NC(=O)c3cc(OC)c(OC)c(OC)c3Br)c(Oc3cc(C)cc(C)c3)cc2C(=O)N1C: FALSE

Taken from ChEMBL document CHEMBL5550190.
